- Test system: HIV-1(IIIB)
- Protocol details: Knock-out concentrations: breakthrough of HIV-1(IIIB)-induced cytopathicity in CEM cell cultures
- Assay type: cell-based
- Run parameters: Human immunodeficiency virus 1, IIIB, CCRF-CEM, 768 h; 0.5 μg/ml, day 32 post infection; read-out: HIV-1-induced cytopathicity in cell culture
Listed compounds paired with reported activity at 0.5 µg/mL
Form entry: value (%) — number only.

Take a look at these entries with their results.
INSERT INTO results (compound, reported_property, measured_number) VALUES
  ('Cc1occc1C(=S)Nc1ccc(Cl)c(C(=O)OC2CCCC2)c1', 'activity at 0.5 µg/mL', 0),
  ('O=C(OC1CCCCC1)c1cc(NC(=S)c2ccsc2)ccc1Cl', 'activity at 0.5 µg/mL', 100);

Inquiry: So what does the record say about activity at 0.5 µg/mL for CC(C)Nc1cccnc1N1CCN(C(=O)c2cc3ccccc3[nH]2)CC1 [BHAP U88204, reference compound] ?
Reply text: 100

Inquiry: So what does the record say about activity at 0.5 µg/mL for Cc1occc1C(=S)Nc1ccc(Cl)c(C(=O)OCC(C)C)c1 ?
Reply text: 0

Inquiry: So what does the record say about activity at 0.5 µg/mL for Cc1occc1C(=S)Nc1ccc(Cl)c(C=NOC(C)(C)C)c1 ?
Reply text: 0

Inquiry: So what does the record say about activity at 0.5 µg/mL for Cc1occc1C(=S)Nc1ccc(Cl)c(C(=O)OC2CCCCC2)c1 ?
Reply text: 0

----------
- Test system: HIV-1 RT (WT) (Human immunodeficiency virus type 1 group M subtype B)
- Protocol details: biochemical
- Run parameters: substrate [2,8-3H]dGTP 2.95 μM, template poly(rC)oligo(dG); read-out: IC50, anti-HIV-1 RT (WT) activity (converted)
Criterion: IC50 strictly under 100 nM. Met: Met. Not met: Not met.

INSERT INTO measurements (compound, test_system, label) VALUES
  ('Cc1occc1C(=S)Nc1ccc(Cl)c(C(=O)OC2CCCCC2)c1', 'HIV-1 RT (WT) (Human immunodeficiency virus type 1 group M subtype B)', 'Not met'),
  ('CC(C)Nc1cccnc1N1CCN(C(=O)c2cc3ccccc3[nH]2)CC1 [BHAP U88204, reference compound]', 'HIV-1 RT (WT) (Human immunodeficiency virus type 1 group M subtype B)', 'Not met'),
  ('Cc1occc1C(=S)Nc1ccc(Cl)c(C(=O)OC2CCCC2)c1', 'HIV-1 RT (WT) (Human immunodeficiency virus type 1 group M subtype B)', 'Met'),
  ('Cc1occc1C(=S)Nc1ccc(Cl)c(C=NOC(C)(C)C)c1', 'HIV-1 RT (WT) (Human immunodeficiency virus type 1 group M subtype B)', 'Not met');

Next up:
Inquiry: hey, is IC50 for O=C(OC1CCCCC1)c1cc(NC(=S)c2ccsc2)ccc1Cl lower than 100 nM or not?
Reply text: Not met

----------
Listed compounds paired with reported pIC50
- Test system: HIV-1 RT (WT) (Human immunodeficiency virus type 1 group M subtype B)
- Protocol details: biochemical
- Run parameters: range stated for the compounds together; poly(C).oligo(dG), 2.95 μM [2,8-3H]dGTP; read-out: IC50 on recombinant HIV-1 RT
pIC50: −log10 of the molar value.

Take a look at these entries with their results.
INSERT INTO results (smiles_string, reported_property, result) VALUES
  ('Cc1occc1C(=S)Nc1ccc(Cl)c(C(=O)OC2CCCCC2)c1', 'pIC50', '6.69 to 7.32'),
  ('Cc1occc1C(=S)Nc1ccc(Cl)c(C=NOC(C)(C)C)c1', 'pIC50', '6.66 to 7.29'),
  ('O=C(OC1CCCCC1)c1cc(NC(=S)c2ccsc2)ccc1Cl', 'pIC50', '6.69 to 7.32');

Could you now consider this next compound?
Inquiry: So what does the record say about pIC50 for Cc1occc1C(=S)Nc1ccc(Cl)c(C(=O)OC2CCCC2)c1 ?
Reply text: 6.67 to 7.31
